measurement-target: corticotropin releasing factor 1 receptor
assay-summary: cell-based or functional assay
Ends that are not written are not given here.
Assign label 1 to entries whose CRF1R Emax % meets or exceeds 40%; assign label 0 to the rest.

Reference set, count: 10
Ask: Quick check: does ZGPPISIDLPLHLLRKMIEIEKQEKEKQQATTNARLLDRV (C-terminal amide) [SEQ ID NO 239] have CRF1R Emax % greater than or equal to 40%?
Result: label 1

Ask: Does the reported CRF1R Emax % for ZGPPISIDVPLQLLRKVIEIEKQEKEKQQAANNARLLDTI (C-terminal amide) [SEQ ID NO 380] fall at or above the 40% mark?
Result: label 0

Ask: Does ZGPPISIDVPYQLLRKVIEIEKQEKEKQQAANNARLLARI (C-terminal amide) [SEQ ID NO 375] have a reported CRF1R Emax % of at least 40%?
Result: label 0

Ask: Decide: CRF1R Emax % of NDDPPISIDLPLHLLRNMIEMARIENEREQAGLNAKYLAEV-NH2 [SEQ ID NO 259] >= 40%?
Result: label 1

Ask: Dear colleague, could you confirm whether ZGPPISIDLPFQLLRVLIEIEKQEKEKQQAANNALLLATI (C-terminal amide) [SEQ ID NO 361] has CRF1R Emax % at or above 40%?
Result: label 1

Ask: Form field: CRF1R Emax % at least 40%? Entry: DNPSLSIDLPLLLLRTLLELEKTQSQRERAEQNAEIFAEV-NH2 [SEQ ID NO 323]
Result: label 0

Ask: Is reported CRF1R Emax % greater than or equal to 40% here: ZGPPISIDLPIFLLRKMIEIEKQEKEKQQAANNALLLATI (C-terminal amide) [SEQ ID NO 298]
Result: label 0

Ask: Entry ZGPPISIDLPFFLLRKMIEIEKQEKEKQQAANNALLLDTI (C-terminal amide) [SEQ ID NO 318] : is its CRF1R Emax % no less than 40%?
Result: label 1

Ask: Check if CRF1R Emax % >= 40% (inclusive). Item: ZGPPISIDVPIGLLRKMIEIEKQEKEKQQAANNRLLLDTI (C-terminal amide) [SEQ ID NO 254]
Result: label 0

Ask: Check the entry ZGPPISIDLPLYLLRKMIEIEKQEKEKQQATTNARLLDTV (C-terminal amide) [SEQ ID NO 242] : does CRF1R Emax % equal or exceed 40%?
Result: label 1

***
Ask: Kindly determine if CRF1R Emax % recorded for ZGPPISIDLPFALLRKMIEIEKQEKEKQQAANNRLLLDTI (not fully specified; C-terminal amide) [SEQ ID NO 307] is above or exactly 40%.
Result: label 1

Ask: Does ZGPPISIDLPYFLLRKMIEIEKQEKEKQQAANNRLLLDTI (C-terminal amide) [SEQ ID NO 220] have a reported CRF1R Emax % of at least 40%?
Result: label 1
